experiment: Pharmacokinetic evaluation in mice; type: in vivo, male ICR mice; conditions: male, ICR, mouse, plasma, po, 10 mg/kg, 0.5% CMC-Na suspension, read-out: Tmax
Metric name: Tmax (h)
Report the figure in h without appending any unit label.

Requested read-out: Tmax. Entry: C=CC(=O)N1CC2(CCN(c3nc(OC4CC5(CCN(CCOC)CC5)C4)nc4c(OCC(F)(F)F)c(-c5c(C)ccc6[nH]ncc56)c(C5CC5)cc34)CC2)C1 [Compound 131] 2

// same read-out, input: C=CC(=O)N1CC2(CCN(c3nc(N4CC(N5CCCC5)C4)nc4c(OCC(F)(F)F)c(-c5c(C)ccc6[nH]ncc56)c(C5CC5)cc34)CC2)C1 [Compound 171] 2

// same read-out, input: C=CC(=O)N1CC2(CCN(c3nc(OC4CCN(CCOC)CC4)nc4c(OCC(F)(F)F)c(-c5c(C)ccc6[nH]ncc56)c(C5CC5)cc34)CC2)C1 [B, reference compound] 2

// same read-out, input: C=CC(=O)N1CC2(CCN(c3nc(N4CC(N5CCC5)C4)nc4c(OCC(F)(F)F)c(-c5c(C)ccc6[nH]ncc56)c(C5CC5)cc34)CC2)C1 [Compound 142] 2

* * *

Kindly supply the reported inhibition at 1 µM values for the records listed here.
tested on: pERK level in H358 cells; assay: pERK and ERK protein content assay in H358 cells (ELISA); type: cell-based; settings: Homo sapiens, NCI-H358, compound 1 μM, 24 h, pERK/ERK ratio compared with DMSO group, read-out: Inhibition rate (%) of pERK level

Requested read-out: inhibition at 1 µM. Entry: C=CC(=O)N1CC2(CCN(c3nc(N4CC[C@H](N5CC(C)C5)C4)nc4c(OCC(F)(F)F)c(-c5c(C)ccc6[nH]ncc56)c(C5CC5)cc34)CC2)C1 [Compound 296] > 90%

// same read-out, input: C=CC(=O)N1CC2(CCN(c3nc(N4CC(N5CC[C@H](OC)C5)C4)nc4c(OCC(F)(F)F)c(-c5c(C)ccc6[nH]ncc56)c(C5CC5)cc34)CC2)C1 [Compound 174] > 90%

// same read-out, input: C=CC(=O)N1CC2(CCN(c3nc(OC4CC5CCC4N5C)nc4c(OCC(F)(F)F)c(-c5c(C)ccc6[nH]ncc56)c(C5CC5)cc34)CC2)C1 (centres unmarked) [Compound 308] > 90%

// same read-out, input: C=CC(=O)N1CC2(CCN(c3nc(N4CC5(C4)CN(C4COC4)C5)nc4c(OCC(F)(F)F)c(-c5c(C)ccc6[nH]ncc56)c(C5CC5)cc34)CC2)C1 [Compound 158] > 90%

// same read-out, input: C=CC(=O)N1CC2(CCN(c3nc(OC4CCN(CCOC)CC4)nc4c(N5CC(F)(F)C5)c(-c5c(C)ccc6[nH]ncc56)c(C5CC5)cc34)CC2)C1 [Compound 9] > 90%

// same read-out, input: C=C(F)C(=O)N1CC2(CCN(c3nc(N4CCN(C5CCOCC5)CC4)nc4c(OCC(F)(F)F)c(-c5c(C)ccc6[nH]ncc56)c(C5CC5)cc34)CC2)C1 [Compound 155] 50 to 90%

// same read-out, input: C=C(F)C(=O)N1CC2(CCN(c3nc(OC4CC5CC4CN5CCOC)nc4c(OCC(F)(F)F)c(-c5c(C)ccc6[nH]ncc56)c(C5CC5)cc34)CC2)C1 (centres unmarked) [Compound 122] 50 to 90%

// same read-out, input: C=C(F)C(=O)N1CC2(CCN(c3nc(N4CCN(C5COC5)CC4)nc4c(OCC(F)(F)F)c(-c5c(C)ccc6[nH]ncc56)c(C5CC5)cc34)CC2)C1 [Compound 153] > 90%

// same read-out, input: C=CC(=O)N1CC2(CCN(c3nc(N4CC[C@H](N5CCC5)C4)nc4c(OCC(F)(F)F)c(-c5c(C)ccc6[nH]ncc56)c(C5CC5)cc34)CC2)C1 [Compound 181] > 90%

// same read-out, input: C=CC(=O)N1CC2(CCN(c3nc(N4CC(N5CCC5)C4)nc4c(OCC(F)(F)F)c(-c5c(C)c(C)cc6[nH]ncc56)c(C5CC5)cc34)CC2)C1 [Compound 217] > 90%

// same read-out, input: C=CC(=O)N1CC2(CCN(c3nc(N4CC5(CC(C#N)C5)C4)nc4c(OCC(F)(F)F)c(-c5c(C)ccc6[nH]ncc56)c(C5CC5)cc34)CC2)C1 [Compound 285] 50 to 90%

* * *

test system: pERK level in H358 cells; test: pERK and ERK protein content assay in H358 cells (ELISA); type: cell-based; conditions: Homo sapiens, NCI-H358, compound 1 μM, 24 h, pERK/ERK ratio compared with DMSO group, read-out: Inhibition rate (%) of pERK level
Kindly supply the reported inhibition at 1 µM values for the records listed here.

Missing value: inhibition at 1 µM, pERK level in H358 cells, entry C=CC(=O)N1CC2(CCN(c3nc(OC4CCS(=O)(=O)C(C)(C)C4)nc4c(OCC(F)(F)F)c(-c5c(C)ccc6[nH]ncc56)c(C5CC5)cc34)CC2)C1 (centres unmarked) [Compound 311] . Fill in? > 90%

// same read-out, input: C=CC(=O)N1CC2(CCN(c3nc(N4CC(N5CCC(F)(F)C5)C4)nc4c(OCC(F)(F)F)c(-c5c(C)ccc6[nH]ncc56)c(C5CC5)cc34)CC2)C1 [Compound 176] 50 to 90%

// same read-out, input: C=CC(=O)N1CC2(CCN(c3nc(OC4CCN(CCOC)CC4)nc4c(OCC(F)(F)F)c(-c5c(C)ccc6[nH]ncc56)c(Cl)cc34)CC2)C1 [Compound 12] > 90%

// same read-out, input: C=CC(=O)N1CC2(CCN(c3nc(N4CC(N5CC[C@H](C)C5)C4)nc4c(OCC(F)F)c(-c5c(C)ccc6[nH]ncc56)c(C5CC5)cc34)CC2)C1 [Compound 333] > 90%

// same read-out, input: C=CC(=O)N1CC2(CCN(c3nc(N4CC(N5CCCC5)C4)nc4c(OCC(F)(F)F)c(-c5c(C)c(F)cc6[nH]ncc56)c(C=C)cc34)CC2)C1 [Compound 224] > 90%

* * *

system: pERK level in H358 cells; test: pERK and ERK protein content assay in H358 cells (ELISA); type: cell-based; settings: Homo sapiens, NCI-H358, compound 1 μM, 24 h, pERK/ERK ratio compared with DMSO group, read-out: Inhibition rate (%) of pERK level
Metric name: inhibition at 1 µM

Requested read-out: inhibition at 1 µM. Entry: C=CC(=O)N1CC2(CCN(c3nc(N4CC5(C4)CS(=O)(=O)C5)nc4c(OCC(F)(F)F)c(-c5c(C)ccc6[nH]ncc56)c(C5CC5)cc34)CC2)C1 > 90%

// same read-out, input: C=CC(=O)N1CC2(CCN(c3nc(N4CC5(CC(N6CCCC6)C5)C4)nc4c(OCC(F)(F)F)c(-c5c(C)ccc6[nH]ncc56)c(C5CC5)cc34)CC2)C1 > 90%

// same read-out, input: C=CC(=O)N1CCC2(CC1)CN(c1nc(OC3CCN(CCOC)CC3)nc3c(OCC(F)(F)F)c(-c4c(C)ccc5[nH]ncc45)c(C4CC4)cc13)C2 50 to 90%

// same read-out, input: C=CC(=O)N1CC2(CCN(c3nc(N4CC(N5CC[C@H](C)C5)C4)nc4c(OCC(F)(F)F)c(-c5c(C)ccc6[nH]ncc56)c(C=C)cc34)CC2)C1 > 90%

// same read-out, input: C=CC(=O)N1CC2(CCN(c3nc(N4CCC5(CCN(C)CC5)CC4)nc4c(OCC(F)(F)F)c(-c5c(C)ccc6[nH]ncc56)c(C5CC5)cc34)CC2)C1 > 90%

* * *

experiment: Pharmacokinetic evaluation in mice; type: in vivo, male ICR mice; details: male, ICR, mouse, plasma, po, 10 mg/kg, 0.5% CMC-Na suspension, read-out: Cmax
Kindly supply the reported Cmax values for the records listed here.
Report the figure in ng/mL without appending any unit label.

Requested read-out: Cmax. Entry: C=CC(=O)N1CC2(CCN(c3nc(OC4CC5(CCN(CCOC)CC5)C4)nc4c(OCC(F)(F)F)c(-c5c(C)ccc6[nH]ncc56)c(C5CC5)cc34)CC2)C1 1820

// same read-out, input: C=CC(=O)N1CC2(CCN(c3nc(N4CC(N5CCCC5)C4)nc4c(OCC(F)(F)F)c(-c5c(C)ccc6[nH]ncc56)c(C5CC5)cc34)CC2)C1 3320

// same read-out, input: C=CC(=O)N1CC2(CCN(c3nc(N4CC(N5CCC5)C4)nc4c(OCC(F)(F)F)c(-c5c(C)ccc6[nH]ncc56)c(C5CC5)cc34)CC2)C1 6730

// same read-out, input: C=CC(=O)N1CC2(CCN(c3nc(OC4CCN(CCOC)CC4)nc4c(OCC(F)(F)F)c(-c5c(C)ccc6[nH]ncc56)c(C5CC5)cc34)CC2)C1 [B, reference compound] 1300
